# target-system: human GCG receptor (human, UniProt P47871 26-477)
# Sequence (P47871 26-477): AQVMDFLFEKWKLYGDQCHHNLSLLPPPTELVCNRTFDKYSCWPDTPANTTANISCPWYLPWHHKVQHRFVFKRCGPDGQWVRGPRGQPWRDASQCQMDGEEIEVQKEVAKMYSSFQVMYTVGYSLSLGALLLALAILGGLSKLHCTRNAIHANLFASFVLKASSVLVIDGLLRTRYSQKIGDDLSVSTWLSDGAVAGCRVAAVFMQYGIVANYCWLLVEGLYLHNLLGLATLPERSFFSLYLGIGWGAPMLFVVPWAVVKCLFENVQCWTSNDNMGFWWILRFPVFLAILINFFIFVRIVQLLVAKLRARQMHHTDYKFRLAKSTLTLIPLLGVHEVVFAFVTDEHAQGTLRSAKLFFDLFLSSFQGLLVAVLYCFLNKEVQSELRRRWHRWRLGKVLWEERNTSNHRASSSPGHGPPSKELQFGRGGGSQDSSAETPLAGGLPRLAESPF
# experiment: cell-based or functional assay
Starred links: 1 amine or outer side, 2 acyl side, 3 side chain; linkers in the order of their positions; H or OH if unused. Non-standard residues stand in square brackets, D forms with d. Groups on a side chain read outwards from the residue. No end group written: not given here. *: point of attachment. C20 diacid = O=C(O)CCCCCCCCCCCCCCCCCCC(=O)*; γGlu = O=C(O)[C@H](CCC(=O)[*:2])N[*:1]; αMeF = C[C@](N)(Cc1ccccc1)C(=O)O; AEEA = NCCOCCOCC(=O)O; Ac3c = NC1(C(=O)O)CC1; Aib = CC(C)(N)C(=O)O
Group membership follows cAMP EC50, HEK-293 cells stably overexpressing human GCG R per the scheme bin 0: < 0.07 nM; bin 1: ≥ 0.07 nM and < 0.1 nM; bin 2: ≥ 0.1 nM

Use the examples below as a reference point.
binder	classification
YXQGTXTSDYSIXLDKKAQXAFIEYLLESHPSSGAPPXS (Aib at 2; αMeF at 6; αMeL at 13; Lys 17 side chain AEEAc-AEEAc-γGlu-CO(CH2)18COOH; Aib at 20; Ac3c at 38; C-terminal amide (NH2)) [Compound 3]	bin 2
YXQGTXTSDYSIXLDKKAQXAFIEYLLETGPSSGQPPXS (Aib at 2; αMeF at 6; αMeL at 13; Lys 17 side chain AEEAc-AEEAc-γGlu-CO(CH2)18COOH; Aib at 20; Ac3c at 38; C-terminal amide (NH2)) [Compound 35]	bin 1
YXQGTXTSDYSIXLDKKAQXAFIEFLLEGRPSSXHPPPS (Aib at 2; αMeF(2F) at 6; αMeL at 13; Lys 17 side chain AEEAc-AEEAc-γGlu-CO(CH2)18COOH; Aib at 20; Aib at 34; C-terminal amide (NH2)) [Compound 25]	bin 0
YXQGTXTSDYSIXLDKKAQXAFIEFLLETXPSSGAPPXS (Aib at 2; αMeF at 6; αMeL at 13; Lys 17 side chain AEEAc-AEEAc-γGlu-CO(CH2)18COOH; Aib at 20; Aib at 30; Ac3c at 38; C-terminal amide (NH2)) [Compound 30]	bin 2
Y[Aib]QGT[αMeF]TSDYSIXLDKK([AEEA-AEEA-γGlu-C20 diacid])AQ[Aib]AFIEFLLES[Aib]PSSGAPP[Ac3c]S-NH2 (not fully specified (residue 13); printed as Y-Aib-QGT-αMeF-TSDYSI-αMeF-LDKK(AEEAc-AEEAc-γGlu-CO(CH2)18COOH)AQ-Aib-AFIEFLLES-Aib-PSSGAPP-Ac3c-S-NH2) [Compound 28]	bin 2

For this binder, which bin applies? YXQGTXTSDYSIXLDKKAQXAFIEYLLETGPSSGQPPPS (Aib at 2; αMeF(2F) at 6; αMeL at 13; Lys 17 side chain AEEAc-AEEAc-γGlu-CO(CH2)18COOH; Aib at 20; C-terminal amide (NH2)) [Compound 23]
bin 0

Please classify: YXQGTXTSDYSIXLDKKAQXAFIEFLLETRPSSXHPPPS (Aib at 2; αMeF(2F) at 6; αMeL at 13; Lys 17 side chain AEEAc-AEEAc-γGlu-CO(CH2)18COOH; Aib at 20; Aib at 34; C-terminal amide (NH2)) [Compound 39]
bin 2

Which bin, given its cAMP EC50, HEK-293 cells stably overexpressing human GCG R, does YXQGTXTSDYSIXLDKKAQXAFIEYLLESHPSSXHPPXS (Aib at 2; αMeF(2F) at 6; αMeL at 13; Lys 17 side chain AEEAc-AEEAc-γGlu-CO(CH2)18COOH; Aib at 20; Aib at 34; Ac3c at 38; C-terminal amide (NH2)) [Compound 43] occupy?
bin 2

Which category fits this record: YXQGTXTSDYSIFLDKKAQXAFIEFLLESHPSSGAPPXS (Aib at 2; αMeF(2F) at 6; Lys 17 side chain AEEAc-AEEAc-γGlu-CO(CH2)18COOH; Aib at 20; Ac3c at 38; C-terminal amide (NH2)) [Compound 10]
bin 1

Returns: class label. Input: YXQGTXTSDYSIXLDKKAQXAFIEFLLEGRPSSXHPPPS (Aib at 2; αMeF at 6; αMeL at 13; Lys 17 side chain AEEAc-AEEAc-γGlu-CO(CH2)18COOH; Aib at 20; Aib at 34; C-terminal amide (NH2)) [Compound 37]
bin 1

Consider YXQGTXTSDYSIXLDKKAQXAFIEFLLESHPSSXHPPXS (Aib at 2; αMeF at 6; αMeL at 13; Lys 17 side chain AEEAc-AEEAc-γGlu-CO(CH2)18COOH; Aib at 20; Aib at 34; Ac3c at 38; C-terminal amide (NH2)) [Compound 33] . To which cAMP EC50, HEK-293 cells stably overexpressing human GCG R class does it belong?
bin 2

// provenance: patent US20250129135A1
